# Potency annotations
- protocol description: Identification of antibody-drug conjugate (ADC) payloads which are substrates of ATP-binding cassette drug efflux transporters: ABCG2-HEK293-pcDNA cell line
- measurement parameters: ABCG2-HEK293 transfected cells viability, CellTiter-Glo, 48 h
Records with an inconclusive call do not appear. Calls of active or inactive are those of the source. Calls follow the shape of the dose curve; as a rule, active = well fitted inhibition curve with a large enough effect; inconclusive = small, poorly fitted or top-dose-only effect; inactive = flat fitted curve, though single readings scatter.
quantity name: Potency

{"molecule": "CCN[C@H]1CO[C@@H](O[C@H]2[C@H](O[C@H]3C#C/C=C\\C#C[C@]4(O)CC(=O)C(NC(=O)OC)=C3/C4=C\\CSSSC)O[C@H](C)[C@@H](NO[C@H]3C[C@H](O)[C@H](SC(=O)c4c(C)c(I)c(O[C@@H]5O[C@@H](C)[C@H](O)[C@@H](OC)[C@H]5O)c(OC)c4OC)[C@@H](C)O3)[C@@H]2O)C[C@@H]1OC", "quantity name": "Potency", "reading": "1.1 nM (active)"}
{"molecule": "COc1cccc2c1C(=O)c1c(O)c3c(c(O)c1C2=O)C[C@@](O)(C(=O)CO)C[C@@H]3O[C@H]1C[C@H]2[C@H](O[C@@H]3[C@@H](OC)OCCN32)[C@H](C)O1", "quantity name": "Potency", "reading": "0.2 nM (active)"}
{"molecule": "COC(=O)c1cc2c3c(cc(O)c2[nH]1)N(C(=O)c1cc2cc(OC)c(OC)c(OC)c2[nH]1)CC3CCl (stereo not given)", "quantity name": "Potency", "reading": "3.4 nM (active)"}
{"molecule": "CC[C@H](C)[C@@H]([C@H](N)CC(=O)N1CCC[C@H]1[C@H](OC)[C@@H](C)C(=O)N[C@@H](Cc1ccccc1)c1nccs1)N(C)C(=O)[C@@H](NC(=O)[C@H](C(C)C)N(C)C)C(C)C", "quantity name": "Potency", "reading": "6 nM (active)"}
{"molecule": "CC(C)(C)OC(=O)Nc1ccc2[nH]c(C(=O)N3C[C@@H](CCl)c4c3cc(O)c3ccccc43)cc2c1", "quantity name": "Potency", "reading": "16.9 nM (active)"}
